src = patent US20110143948A1

- Tested on: ncRNAs (SEQ ID NO 28-89)
- procedure summary: ncRNA arrays of melanocytes, keratinocytes, normal skin, melanoma cell lines and patient samples
- Parameters: species or system human
- experimental parameters: melanoma patient 21 sample compared to normal skin
Below, each entry is listed alongside its reported ncRNA array expression, patient 21.

{"substance": "SEQ ID NO 54 (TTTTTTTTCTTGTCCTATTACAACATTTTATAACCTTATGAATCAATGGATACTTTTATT; listed as DNA, chemistry not given here; listed as Homo sapiens)", "target system": "ncRNAs (SEQ ID NO 28-89)", "ncRNA array expression, patient 21": 1.299}
{"substance": "SEQ ID NO 29 (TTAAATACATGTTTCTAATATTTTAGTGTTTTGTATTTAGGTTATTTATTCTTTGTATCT; DNA, backbone and methylation of C not given here; listed as Homo sapiens)", "target system": "ncRNAs (SEQ ID NO 28-89)", "ncRNA array expression, patient 21": 2.504}
{"substance": "SEQ ID NO 66 (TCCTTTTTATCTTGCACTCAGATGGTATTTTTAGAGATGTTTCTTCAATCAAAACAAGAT; listed as DNA, chemistry not given here; listed as Homo sapiens)", "target system": "ncRNAs (SEQ ID NO 28-89)", "ncRNA array expression, patient 21": 2.263}
